Attribution: patent US20240000075A1

- Tested on: Phakopsora pachyrhizi
- test_description: Asian soybean rust, whole-plant fungicidal activity (PHAKPA)
- Type: in vivo
- particulars: 72 h, 3DC (3 day curative), read-out: % Disease Control Rating PHAKPA
endpoint_label: pest or weed control at 200 ppm

molecular_string=Cc1cc(C(=O)CC2CCCC2)c(C)cc1/N=C1\CCCCN1C endpoint_label="pest or weed control at 200 ppm" result="50 to 85%"
molecular_string=CCN(C)/C=N/c1cc(C)c(C(=O)Cc2cccc(OC(F)(F)F)c2)cc1C endpoint_label="pest or weed control at 200 ppm" result="> 85%"
molecular_string=CCN(C)/C=N/c1cc(C(F)(F)F)c(C(=O)C2CCC2)cc1C endpoint_label="pest or weed control at 200 ppm" result="20 to 50%"
molecular_string=CCN(C)/C=N/c1cc(C)c(C(=O)CCC(F)(F)C(F)(F)F)cc1C endpoint_label="pest or weed control at 200 ppm" result="> 85%"
molecular_string=CCN(C)/C=N/c1cc(C)c(C(=O)CCC(F)(F)F)cc1C endpoint_label="pest or weed control at 200 ppm" result="> 85%"

###

- Test system: Rhynchosporium commune
- test_description: Leaf blotch of barley, whole-plant fungicidal activity (RHYNSE)
- Type: in vivo
- particulars: 24 h, 1DP (1 day protectant), read-out: % Disease Control Rating RHYNSE
endpoint_label: pest or weed control at 200 ppm

molecular_string=CCN(C)/C=N/c1ccc(C(=O)CCCC(F)(F)F)c(C)c1C endpoint_label="pest or weed control at 200 ppm" result="< 20%"
molecular_string=CCN(C)/C=N/c1cc(C)c(C(=O)C2CCCC2)cc1C endpoint_label="pest or weed control at 200 ppm" result="> 85%"
molecular_string=Cc1cc(C(=O)Cc2c(F)cc(F)cc2F)c(C)cc1/N=C/N(C)C(C)C endpoint_label="pest or weed control at 200 ppm" result="50 to 85%"
molecular_string=CCN(C)/C=N/c1cc(C)c(C(=O)Cc2ccc(OC(F)F)cc2)cc1C endpoint_label="pest or weed control at 200 ppm" result="> 85%"
molecular_string=CCN(/C=N/c1cc(C)c(C(=O)CC2CCCC2)cc1C)CC endpoint_label="pest or weed control at 200 ppm" result="20 to 50%"
molecular_string=CCN(C)/C=N/c1cc(C)c(C(=O)Cc2ccc(C)cc2C)cc1C endpoint_label="pest or weed control at 200 ppm" result="> 85%"
molecular_string=CCN(C)/C=N/c1cc(C)c(C(=O)Cc2ccc(F)cc2)cc1C endpoint_label="pest or weed control at 200 ppm" result="> 85%"
molecular_string=CCN(C)/C=N/c1cc(C)c(C(=O)Cc2c(F)cc(F)cc2F)cc1OC endpoint_label="pest or weed control at 200 ppm" result="20 to 50%"
molecular_string=CCN(/C=N/c1cc(C)c(C(=O)CC2CCCCC2)cc1C)CC endpoint_label="pest or weed control at 200 ppm" result="< 20%"
molecular_string=Cc1cc(C(=O)CC2CCCCC2)c(C)cc1/N=C(\S)N(C)CC(F)(F)F endpoint_label="pest or weed control at 200 ppm" result="< 20%"
molecular_string=CCN(C)/C=N/c1cc(C)c(C(=O)Cc2cccc(C(=O)OC)c2F)cc1C endpoint_label="pest or weed control at 200 ppm" result="50 to 85%"
molecular_string=CCN(C)/C=N/c1cc(C)c(C(=O)CCC(F)(F)F)cc1C endpoint_label="pest or weed control at 200 ppm" result="20 to 50%"
molecular_string=Cc1cc(C(=O)CC2CCCCC2)c(C)cc1/N=C(\S)N(C)C(C)C endpoint_label="pest or weed control at 200 ppm" result="20 to 50%"
molecular_string=Cc1cc(C(=O)CC2CCCC2)c(C)cc1/N=C/N(C)C(C)C endpoint_label="pest or weed control at 200 ppm" result="> 85%"
molecular_string=CCN(C)/C(C)=N/c1cc(C)c(C(=O)Cc2c(F)cc(F)cc2F)cc1C endpoint_label="pest or weed control at 200 ppm" result="< 20%"
molecular_string=CCN(C)/C=N/c1cc(C)c(C(=O)Cc2ccc(C)cc2F)cc1C endpoint_label="pest or weed control at 200 ppm" result="> 85%"
